Listed here are molecules together with their documented Ki.
Biological target: NMDA
Assay: Glutamate binding assay, NMDA-specific L-[³H]glutamate binding to synaptic plasma membranes
Conditions: 12.5 nM L-[³H]glutamate, SPM, 0-4°C, 10 minutes
Dear colleague, please return just the value in nM, with no unit written.

Example results:
N[C@@H](CC1CC1C(=O)O)C(=O)O (stereo partly drawn) [trans-L-2-amino-4,5-methyleneadipic acid, Trans-L-2-amino-4,5-methyleneadipic acid] ... 2500
N[C@H](CC1CC1C(=O)O)C(=O)O (stereo partly drawn) [cis-D-2-amino-4,5-methyleneadipic acid, Cis-D-2-amino-4,5-methyleneadipic acid] ... 1900
N[C@H](CC1CC1C(=O)O)C(=O)O (stereo partly drawn) [trans-D-2-amino-4,5-methyleneadipic acid, Trans-D-2-amino-4,5-methyleneadipic acid] ... 2200

Fill in: Ki of N[C@@H](CC1CC1C(=O)O)C(=O)O (stereo partly drawn) [cis-L-2-amino-4,5-methyleneadipic acid, Cis-L-2-amino-4,5-methyleneadipic acid] is ___
14200

---

Biological target: Kainate
Assay: Glutamate binding assay, [³H]kainate binding to synaptic plasma membranes
Conditions: 0.5 nM [³H]kainate, SPM, 0-4°C, 60 minutes
Listed here are molecules together with their documented Binding Ki KA.
Dear colleague, please return just the value in µM, with no unit written.

Example results:
N[C@@H](CC1CC1C(=O)O)C(=O)O (stereo partly drawn) [trans-L-2-amino-4,5-methyleneadipic acid, Trans-L-2-amino-4,5-methyleneadipic acid] ... 37.0
N[C@H](CC1CC1C(=O)O)C(=O)O (stereo partly drawn) [trans-D-2-amino-4,5-methyleneadipic acid, Trans-D-2-amino-4,5-methyleneadipic acid] ... 25.0
N[C@@H](CC1CC1C(=O)O)C(=O)O (stereo partly drawn) [cis-L-2-amino-4,5-methyleneadipic acid, Cis-L-2-amino-4,5-methyleneadipic acid] ... 23.0

Fill in: Binding Ki KA of N[C@H](CC1CC1C(=O)O)C(=O)O (stereo partly drawn) [cis-D-2-amino-4,5-methyleneadipic acid, Cis-D-2-amino-4,5-methyleneadipic acid] is ___
13.0
